- ASSAYED_TARGET: human Claudin18.2 (human, UniProt P56856-2 1-261)
- ASSAY_REMARKS: cell-based or functional assay
MEASUREMENT_KIND: ADCC EC50, Ba/F3-Claudin18.2 target cells, NK-92MI_mCD16 effectors

BINDER | REPORTED
humanized antibody 1E9.2-hz13 (antibody, human IgG1, kappa, V domains shown, Human IgG1 / kappa constant regions) VH: EVQLVESGGGLVKPGGSLRLSCAASGFSFSNSAMSWVRQAPGKGLEWVSTISSGDSYTYYADSVKGRFTISRDNAKNSLYLQMNSLRAEDTAVYYCARQGYGNALDYWGQGTLVTVSS VL: DIVMTQSPDSLAVSLGERATINCKSSQSLLQSGNQKNYLTWYQQKPGQPPKLLIYWSSTRESGVPDRFSGSGSGTDFTLTISSLQAEDVAVYYCQNDYYYPLTFGGGTKVEIKR | 0.068 µg/mL
humanized antibody 1E9.2-hz14 (antibody, human IgG1, kappa, V domains shown, Human IgG1 / kappa constant regions) VH: EVQLVESGGGLVKPGGSLRLSCAASGFSFSNSAMSWVRQAPGKGLEWVSTISSGDSYTYYADSVKGRFTISRDNAKNSLYLQMNSLRAEDTAVYYCARQGYGNALDYWGQGTLVTVSS VL: DIVMTQSPDSLAVSLGERATINCKSSQSLLQSGNNKNYLTWYQQKPGQPPKLLIYWSSTRESGVPDRFSGSGSGTDFTLTISSLQAEDFAVYYCQNDYYYPLTFGGGTKVEIKR | 0.097 µg/mL
humanized antibody 1E9.2-hz15 (antibody, human IgG1, kappa, V domains shown, Human IgG1 / kappa constant regions) VH: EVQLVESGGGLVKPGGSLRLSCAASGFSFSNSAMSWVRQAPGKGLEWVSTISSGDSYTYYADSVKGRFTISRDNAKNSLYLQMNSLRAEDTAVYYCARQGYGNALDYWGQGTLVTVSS VL: DIVMTQTPLSLPVTPGEPASISCKSSQSLLNSGNQKNYLTWYLQKPGQSPQLLIYWSSTRESGVPDRFSGSGSGTDFTLKISRVEAEDFGVYYCQNDYYYPLTFGGGTKVEIKR | 0.08 µg/mL
humanized antibody 1E9.2-hz11 (antibody, human IgG1, kappa, V domains shown, human IgG1 / kappa) VH: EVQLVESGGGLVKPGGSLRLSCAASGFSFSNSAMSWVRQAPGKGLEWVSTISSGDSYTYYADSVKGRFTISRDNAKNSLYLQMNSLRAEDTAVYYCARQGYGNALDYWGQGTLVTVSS VL: DIVMTQSPDSLAVSLGERATINCKSSQSLLNSGNQKNYLTWYQQKPGQPPKLLIYWSSTRESGVPDRFSGSGSGTDFTLTISSLQAEDFAVYYCQNDYYYPLTFGGGTKVEIKR | 0.041 µg/mL
